The measured values listed here are drawn from patent US20040096356A1.

- Tested on: receptor BlaR-CTD (Bacillus licheniformis)
- Construct: the receptor BlaR-CTD is the carboxy-terminal region of BlaR
- Run description: 9-minute test: strip test for β-lactam antibiotics in milk using BlaR-CTD
- Type: binding
- Condition set: in 9 minutes; positive when first band is less intense than second band
Quantity measured: lowest concentration detected in a milk sample (ppb)
Form entry: value (ppb) — number only.

[
  {
    "Chemical smiles": "Cc1onc(-c2ccccc2Cl)c1C(=O)N[C@@H]1C(=O)N2[C@@H]1SC(C)(C)[C@@H]2C(=O)O",
    "Measured number": 4
  },
  {
    "Chemical smiles": "CC(=O)OCC1=C(C(=O)O)N2C(=O)[C@@H](NC(=O)CSc3ccncc3)[C@H]2SC1",
    "Measured number": 6
  }
]

# ---- query molecule ----
Problem: Quick check: lowest concentration detected in a milk sample of CC1(C)S[C@@H]2[C@H](NC(=O)Cc3ccccc3)C(=O)N2[C@H]1C(=O)O ?
Solution: 3

---

Catalogue of molecules with associated lowest concentration detected in a milk sample
- Tested on: receptor BlaR-CTD (Bacillus licheniformis)
- Construct: the receptor BlaR-CTD is the carboxy-terminal region of BlaR
- Run description: 9-minute test: strip test for β-lactam antibiotics in milk using BlaR-CTD
- Assay type: binding
- Condition set: in 9 minutes; positive when first band is less intense than second band
Form entry: value (ppb) — number only.

Problem: Query lowest concentration detected in a milk sample on receptor BlaR-CTD (Bacillus licheniformis) for CC1(C)S[C@@H]2[C@H](NC(=O)[C@H](N)c3ccccc3)C(=O)N2[C@H]1C(=O)O [ampicillin]
Solution: 4

Problem: Query lowest concentration detected in a milk sample on receptor BlaR-CTD (Bacillus licheniformis) for Cc1onc(-c2ccccc2)c1C(=O)N[C@@H]1C(=O)N2[C@@H]1SC(C)(C)[C@@H]2C(=O)O [oxacillin]
Solution: 8

Problem: Query lowest concentration detected in a milk sample on receptor BlaR-CTD (Bacillus licheniformis) for CC1(C)S[C@@H]2[C@H](NC(=O)[C@H](N)c3ccc(O)cc3)C(=O)N2[C@H]1C(=O)O [amoxicillin]
Solution: 4

Problem: Query lowest concentration detected in a milk sample on receptor BlaR-CTD (Bacillus licheniformis) for Cc1onc(-c2c(Cl)cccc2Cl)c1C(=O)N[C@@H]1C(=O)N2[C@@H]1SC(C)(C)[C@@H]2C(=O)O [dicloxacillin]
Solution: 8

---

Catalogue of molecules with associated lowest concentration detected in a milk sample
- Tested on: receptor BlaR-CTD (Bacillus licheniformis)
- Construct: the receptor BlaR-CTD is the carboxy-terminal region of BlaR
- Run description: Five minutes test: strip test for β-lactam antibiotics in milk using BlaR-CTD
- Type: binding
- Condition set: in 5 minutes; positive when first band is less intense than second band
Form entry: value (ppb) — number only.

[
  {
    "Molecule": "CC1(C)S[C@@H]2[C@H](NC(=O)[C@H](N)c3ccc(O)cc3)C(=O)N2[C@H]1C(=O)O [amoxicillin]",
    "Measured number": 4
  }
]

Problem: Quick check: lowest concentration detected in a milk sample of CC(=O)OCC1=C(C(=O)O)N2C(=O)[C@@H](NC(=O)CSc3ccncc3)[C@H]2SC1 [Cephapirin, cephapirin] ?
Solution: 16

Problem: Quick check: lowest concentration detected in a milk sample of Cc1onc(-c2ccccc2)c1C(=O)N[C@@H]1C(=O)N2[C@@H]1SC(C)(C)[C@@H]2C(=O)O [oxacillin] ?
Solution: 8

Problem: Quick check: lowest concentration detected in a milk sample of CCOc1ccc2ccccc2c1C(=O)N[C@@H]1C(=O)N2[C@@H]1SC(C)(C)[C@@H]2C(=O)O [nafcillin] ?
Solution: 20

Problem: Quick check: lowest concentration detected in a milk sample of CC1(C)S[C@@H]2[C@H](NC(=O)[C@H](N)c3ccccc3)C(=O)N2[C@H]1C(=O)O [ampicillin] ?
Solution: 4

Problem: Quick check: lowest concentration detected in a milk sample of Cc1nnc(SCC2=C(C(=O)O)N3C(=O)[C@@H](NC(=O)Cn4cnnn4)[C@H]3SC2)s1 [cefazolin] ?
Solution: 60

---

- Tested on: receptor BlaR-CTD (Bacillus licheniformis)
- Construct: the receptor BlaR-CTD is the carboxy-terminal region of BlaR
- Run description: 3-minute rapid test: strip test for β-lactam antibiotics in milk using BlaR-CTD
- Type: binding
- Condition set: in 3 minutes; positive when first band is less intense than second band
Quantity measured: lowest concentration detected in a milk sample (ppb)
Form entry: value (ppb) — number only.

[
  {
    "Chemical smiles": "CC1(C)S[C@@H]2[C@H](NC(=O)[C@H](N)c3ccc(O)cc3)C(=O)N2[C@H]1C(=O)O",
    "Measured number": 5
  }
]

Problem: Query lowest concentration detected in a milk sample on receptor BlaR-CTD (Bacillus licheniformis) for CC(=O)OCC1=C(C(=O)O)N2C(=O)[C@@H](NC(=O)CSc3ccncc3)[C@H]2SC1
Solution: 20

Problem: Query lowest concentration detected in a milk sample on receptor BlaR-CTD (Bacillus licheniformis) for CC1(C)S[C@@H]2[C@H](NC(=O)[C@H](N)c3ccccc3)C(=O)N2[C@H]1C(=O)O
Solution: 5

---

Catalogue of molecules with associated lowest concentration detected in a milk sample
- Tested on: receptor BlaR-CTD (Bacillus licheniformis, UniProt P12287)
- Construct: the receptor BlaR-CTD is the carboxy-terminal region of BlaR
- Sequence (P12287 340-601): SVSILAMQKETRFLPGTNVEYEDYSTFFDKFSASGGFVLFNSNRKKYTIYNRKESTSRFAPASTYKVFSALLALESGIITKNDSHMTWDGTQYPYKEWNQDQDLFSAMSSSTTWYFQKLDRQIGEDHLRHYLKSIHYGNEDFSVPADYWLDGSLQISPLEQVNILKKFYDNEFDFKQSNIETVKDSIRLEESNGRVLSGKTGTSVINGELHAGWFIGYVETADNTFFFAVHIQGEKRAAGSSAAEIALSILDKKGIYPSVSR
- Run description: 9-minute test: strip test for β-lactam antibiotics in milk using BlaR-CTD
- Assay type: binding
- Condition set: in 9 minutes; positive when first band is less intense than second band
Form entry: value (ppb) — number only.

[
  {
    "Molecule": "CCOc1ccc2ccccc2c1C(=O)N[C@@H]1C(=O)N2[C@@H]1SC(C)(C)[C@@H]2C(=O)O [nafcillin]",
    "Units of measure": "ppb",
    "Measured number": 20
  },
  {
    "Molecule": "CO/N=C(\\C(=O)N[C@@H]1C(=O)N2C(C(=O)O)=C(CSC(=O)c3ccco3)CS[C@H]12)c1csc(N)n1 [Ceftiofur, ceftiofur]",
    "Units of measure": "ppb",
    "Measured number": 80
  }
]

# ---- query molecule ----
Problem: Quick check: lowest concentration detected in a milk sample of Cc1nnc(SCC2=C(C(=O)O)N3C(=O)[C@@H](NC(=O)Cn4cnnn4)[C@H]3SC2)s1 [cefazolin] ?
Solution: 45

---

Catalogue of molecules with associated lowest concentration detected in a milk sample
- Tested on: receptor BlaR-CTD (Bacillus licheniformis, UniProt P12287)
- Construct: the receptor BlaR-CTD is the carboxy-terminal region of BlaR
- Run description: Five minutes test: strip test for β-lactam antibiotics in milk using BlaR-CTD
- Assay type: binding
- Condition set: in 5 minutes; positive when first band is less intense than second band

Known results for molecules:
[
  {
    "Chemical smiles": "CO/N=C(\\C(=O)N[C@@H]1C(=O)N2C(C(=O)O)=C(CSC(=O)c3ccco3)CS[C@H]12)c1csc(N)n1",
    "Tested on": "receptor BlaR-CTD (Bacillus licheniformis, UniProt P12287)",
    "Result": "100 ppb"
  },
  {
    "Chemical smiles": "Cc1onc(-c2ccccc2Cl)c1C(=O)N[C@@H]1C(=O)N2[C@@H]1SC(C)(C)[C@@H]2C(=O)O",
    "Tested on": "receptor BlaR-CTD (Bacillus licheniformis, UniProt P12287)",
    "Result": "4 ppb"
  },
  {
    "Chemical smiles": "CC1(C)S[C@@H]2[C@H](NC(=O)Cc3ccccc3)C(=O)N2[C@H]1C(=O)O",
    "Tested on": "receptor BlaR-CTD (Bacillus licheniformis, UniProt P12287)",
    "Result": "3 ppb"
  }
]

# ---- query molecule ----
Problem: Quick check: lowest concentration detected in a milk sample of Cc1onc(-c2c(Cl)cccc2Cl)c1C(=O)N[C@@H]1C(=O)N2[C@@H]1SC(C)(C)[C@@H]2C(=O)O ?
Solution: 8 ppb
